FYI, the data here is from ChEMBL document CHEMBL3124926.

Answer each item with its documented Emax.
target.desc: Glucocorticoid receptor (Homo sapiens) (UniProt P04150)
Sequence (whole entry): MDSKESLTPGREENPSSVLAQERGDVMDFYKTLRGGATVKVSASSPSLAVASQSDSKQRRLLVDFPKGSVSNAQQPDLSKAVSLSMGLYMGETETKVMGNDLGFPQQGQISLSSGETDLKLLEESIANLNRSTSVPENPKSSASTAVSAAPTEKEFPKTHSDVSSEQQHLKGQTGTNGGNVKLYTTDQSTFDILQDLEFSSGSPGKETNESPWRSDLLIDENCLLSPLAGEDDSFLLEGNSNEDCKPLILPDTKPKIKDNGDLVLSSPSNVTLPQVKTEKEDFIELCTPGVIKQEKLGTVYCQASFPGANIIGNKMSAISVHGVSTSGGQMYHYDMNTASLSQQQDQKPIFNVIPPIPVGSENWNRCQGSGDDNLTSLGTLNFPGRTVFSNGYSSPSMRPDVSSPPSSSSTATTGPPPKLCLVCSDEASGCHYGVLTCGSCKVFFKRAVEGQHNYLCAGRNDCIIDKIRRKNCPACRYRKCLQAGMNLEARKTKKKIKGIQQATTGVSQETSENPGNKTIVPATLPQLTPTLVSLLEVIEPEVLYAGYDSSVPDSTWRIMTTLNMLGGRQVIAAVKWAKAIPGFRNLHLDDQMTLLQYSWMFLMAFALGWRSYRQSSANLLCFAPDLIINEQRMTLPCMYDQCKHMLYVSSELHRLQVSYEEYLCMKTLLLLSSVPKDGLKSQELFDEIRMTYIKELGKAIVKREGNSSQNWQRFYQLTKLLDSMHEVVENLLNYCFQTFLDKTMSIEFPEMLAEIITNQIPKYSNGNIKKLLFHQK
assay.method.text: Transrepression activity at glucocorticoid receptor in human fibroblasts assessed as inhibition of IL-1-induced IL-6 production at 2 uM after 18 to 24 hrs relative to dexomethasone
Please reply with the bare figure in % and do not write the unit itself.

Entry Cc1ccc(F)cc1C(C)(C)CC(O)(Cc1cc2nc(C(C)C)ncc2[nH]1)C(F)(F)F (racemic) : reported Emax = ?
50

Entry Cc1ccc(F)cc1C(C)(C)C[C@@](O)(Cc1cc2nnccc2[nH]1)C(F)(F)F : reported Emax = ?
86

Entry Cc1ccc(F)cc1C(C)(C)CC(O)(Cc1cc2nc(N3CCCC3)ncc2[nH]1)C(F)(F)F (racemic) : reported Emax = ?
76

Entry CC(C)(CC(O)(Cc1cc2ncncc2[nH]1)C(F)(F)F)c1ccc(F)cc1O (racemic) : reported Emax = ?
86

Entry COc1ccc(F)cc1C(C)(C)CC(O)(Cc1cc2ncncc2[nH]1)C(F)(F)F (racemic) : reported Emax = ?
85

Entry CC(C)(CC(O)(Cc1cc2ncncc2[nH]1)C(F)(F)F)c1cc(Cl)cc2c1OCC2 (racemic) : reported Emax = ?
87

Entry CC(C)(CC(O)(Cc1cc2ncncc2[nH]1)C(F)(F)F)c1ccccc1S(C)(=O)=O (racemic) : reported Emax = ?
92

Entry Cc1ccccc1C(C)(C)CC(O)(Cc1cc2ncncc2[nH]1)C(F)(F)F (racemic) : reported Emax = ?
69

Entry CC(C)(CC(O)(Cc1cc2ncncc2[nH]1)C(F)(F)F)c1cc(F)cc2c1OCC2 (racemic) : reported Emax = ?
78

Entry Cc1ccc(F)cc1C(C)(C)CC(O)(Cc1cc2nc(-c3ccccc3)ncc2[nH]1)C(F)(F)F (racemic) : reported Emax = ?
93

Entry Cc1ccc(F)cc1C(C)(C)C[C@@](O)(Cc1cc2ncncc2[nH]1)C(F)(F)F : reported Emax = ?
72

Entry Cc1ccc(F)cc1C(C)(C)CC(O)(Cc1cc2nnccc2[nH]1)C(F)(F)F (racemic) : reported Emax = ?
85

Entry Cc1ccc(F)cc1C(C)(C)CC(O)(Cc1cc2nc(-c3cccnc3)ncc2[nH]1)C(F)(F)F (racemic) : reported Emax = ?
92

Entry COc1ccc(F)cc1C(C)(C)CC(O)(Cc1cc2cncnc2[nH]1)C(F)(F)F (racemic) : reported Emax = ?
82

Entry Cc1ccc(F)cc1C(C)(C)CC(O)(Cc1cc2ncncc2[nH]1)C(F)(F)F (racemic) : reported Emax = ?
74

Entry Cc1ccc(F)cc1C(C)(C)CC(O)(Cc1cc2nc(N3CCOCC3)ncc2[nH]1)C(F)(F)F (racemic) : reported Emax = ?
84

Entry Cc1ccc(F)cc1C(C)(C)CC(O)(Cc1cc2nc(-c3ccccc3)cnc2[nH]1)C(F)(F)F (stereo not drawn) : reported Emax = ?
82

Entry Cc1ccc(F)cc1C(C)(C)CC(O)(Cc1cc2nc(N3CCS(=O)(=O)CC3)ncc2[nH]1)C(F)(F)F (racemic) : reported Emax = ?
84

----------
Answer each item with its documented Papp.
assay.method.text: Permeability across human Caco2 cells
Assay type: ADME, cell-based
experimental.parameters: Caco-2, read-out: permeability
Please reply with the bare figure in ×10⁻⁶ cm/s and do not write the unit itself.

Entry Cc1ccc(F)cc1C(C)(C)CC(O)(Cc1cc2ncncc2[nH]1)C(F)(F)F (racemic) : reported Papp = ?
11

Entry Cc1ccc(F)cc1C(C)(C)CC(O)(Cc1cc2nnccc2[nH]1)C(F)(F)F (racemic) : reported Papp = ?
13

----------
target.desc: UniProt:P04150
assay.method.text: Agonist activity at glucocorticoid receptor in human […] cells assessed as suppression of vitamin D-induced osteocalcin production at 2 uM after 48 hrs by Gla-type osteocalcin ELISA relative to dexomethasone
Type: cell-based
Answer each item with its documented Emax.
Please reply with the bare figure in % and do not write the unit itself.

Form: Entry = Cc1ccc(F)cc1C(C)(C)C[C@@](O)(Cc1cc2ncncc2[nH]1)C(F)(F)F | System = UniProt:P04150 | Emax = ____
32

Form: Entry = Cc1ccc(F)cc1C(C)(C)CC(O)(Cc1cc2nc(-c3ccccc3)ncc2[nH]1)C(F)(F)F (racemic) | System = UniProt:P04150 | Emax = ____
72

Form: Entry = CC(C)(CC(O)(Cc1cc2ncncc2[nH]1)C(F)(F)F)c1ccccc1S(C)(=O)=O (racemic) | System = UniProt:P04150 | Emax = ____
43

Form: Entry = CC(C)(CC(O)(Cc1cc2ncncc2[nH]1)C(F)(F)F)c1cc(Cl)cc2c1OCC2 (racemic) | System = UniProt:P04150 | Emax = ____
35

Form: Entry = Cc1ccc(F)cc1C(C)(C)CC(O)(Cc1cc2nc(-c3cccnc3)ncc2[nH]1)C(F)(F)F (racemic) | System = UniProt:P04150 | Emax = ____
74

Form: Entry = Cc1ccc(F)cc1C(C)(C)CC(O)(Cc1cc2nnccc2[nH]1)C(F)(F)F (racemic) | System = UniProt:P04150 | Emax = ____
45

Form: Entry = CC(C)(C[C@@](O)(Cc1cc2ccncc2[nH]1)C(F)(F)F)c1cc(F)ccc1O | System = UniProt:P04150 | Emax = ____
68

Form: Entry = CC(C)(CC(O)(Cc1cc2ncncc2[nH]1)C(F)(F)F)c1cc(F)ccc1O (racemic) | System = UniProt:P04150 | Emax = ____
42

----------
Answer each item with its documented Emax.
target.desc: Glucocorticoid receptor (Homo sapiens) (UniProt P04150)
Sequence (whole entry): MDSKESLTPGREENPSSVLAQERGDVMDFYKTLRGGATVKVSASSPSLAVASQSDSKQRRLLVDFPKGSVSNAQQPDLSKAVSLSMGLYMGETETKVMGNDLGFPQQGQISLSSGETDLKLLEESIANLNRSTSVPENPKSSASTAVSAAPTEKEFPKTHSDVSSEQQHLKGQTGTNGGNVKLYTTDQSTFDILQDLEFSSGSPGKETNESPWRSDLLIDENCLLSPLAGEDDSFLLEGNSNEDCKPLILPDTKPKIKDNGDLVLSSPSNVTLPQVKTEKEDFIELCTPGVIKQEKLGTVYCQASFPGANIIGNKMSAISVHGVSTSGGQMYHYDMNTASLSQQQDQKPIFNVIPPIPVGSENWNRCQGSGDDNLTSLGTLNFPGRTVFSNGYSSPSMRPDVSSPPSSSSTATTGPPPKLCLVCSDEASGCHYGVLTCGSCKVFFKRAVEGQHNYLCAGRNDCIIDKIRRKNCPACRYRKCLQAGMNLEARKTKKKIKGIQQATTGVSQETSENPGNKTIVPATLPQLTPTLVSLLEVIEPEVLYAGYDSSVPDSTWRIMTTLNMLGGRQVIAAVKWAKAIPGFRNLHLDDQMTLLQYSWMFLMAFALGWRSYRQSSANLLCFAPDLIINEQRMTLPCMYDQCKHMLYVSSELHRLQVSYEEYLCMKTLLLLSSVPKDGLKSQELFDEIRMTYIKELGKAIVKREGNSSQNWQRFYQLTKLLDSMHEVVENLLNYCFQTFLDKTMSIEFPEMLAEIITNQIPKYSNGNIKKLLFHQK
assay.method.text: Agonist activity at glucocorticoid receptor in human […] cells assessed as suppression of vitamin D-induced osteocalcin production at 2 uM after 48 hrs by Gla-type osteocalcin ELISA relative to dexomethasone
Type: cell-based
Please reply with the bare figure in % and do not write the unit itself.

Entry Cc1ccc(F)cc1C(C)(C)CC(O)(Cc1cc2cnncc2[nH]1)C(F)(F)F (racemic) : reported Emax = ?
81

Entry C[C@]12C=CC(=O)C=C1CC[C@@H]1[C@@H]2[C@@H](O)C[C@@]2(C)[C@H]1CC[C@]2(O)C(=O)CO : reported Emax = ?
78

Entry CC(C)(CC(O)(Cc1cc2ncncc2[nH]1)C(F)(F)F)c1cc(F)cc2c1OCC2 (racemic) : reported Emax = ?
26

Entry COc1ccc(-c2cncnc2)cc1C(C)(C)C[C@@](O)(Cc1cc2ccncc2[nH]1)C(F)(F)F : reported Emax = ?
45

Entry CC(C)(CC(O)(Cc1cc2ncncc2[nH]1)C(F)(F)F)c1ccc(F)cc1O (racemic) : reported Emax = ?
28

Entry Cc1ccc(F)cc1C(C)(C)CC(O)(Cc1cc2ncncc2[nH]1)C(F)(F)F (racemic) : reported Emax = ?
32

Entry Cc1ccc(F)cc1C(C)(C)CC(O)(Cc1cc2nc(N3CCS(=O)(=O)CC3)ncc2[nH]1)C(F)(F)F (racemic) : reported Emax = ?
80

Entry Cc1ccc(F)cc1C(C)(C)C[C@@](O)(Cc1cc2nnccc2[nH]1)C(F)(F)F : reported Emax = ?
34

Entry Cc1ccc(F)cc1C(C)(C)CC(O)(Cc1cc2cc(-c3ccccc3)nnc2[nH]1)C(F)(F)F (racemic) : reported Emax = ?
73
